In this section, each of the molecules is paired with its reported DX-Nanoluciferase activity (10 μM).
Target: AIMP2-DX2 (Homo sapiens)
Sequence (Q13155 1-251 isoform Q13155-2): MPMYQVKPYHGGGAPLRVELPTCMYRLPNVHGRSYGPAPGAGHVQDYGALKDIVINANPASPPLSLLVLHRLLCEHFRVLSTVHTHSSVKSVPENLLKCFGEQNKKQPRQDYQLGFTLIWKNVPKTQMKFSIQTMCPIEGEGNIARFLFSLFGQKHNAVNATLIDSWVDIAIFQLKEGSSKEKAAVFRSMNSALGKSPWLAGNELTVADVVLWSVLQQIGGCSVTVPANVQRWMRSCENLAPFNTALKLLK
Experiment: DX2-nanoluciferase assay (DX2 expression change) in transfected A549 cells
Conditions: 10 μM, 4 hours treatment, A549 cells transfected with nanoluciferase-DX2
measurementKind: DX-Nanoluciferase activity (10 μM)

molecule: COc1ccc(C(=O)NNC(=O)[C@H](Cc2c[nH]c3ccccc23)NS(=O)(=O)c2ccc(C)cc2)cc1 [Compound 191]
systemUnderTest: AIMP2-DX2 (Homo sapiens)
observedValue: 8.09 ± 6.94 (10 μM)

molecule: Cc1ccc(S(=O)(=O)N[C@@H](Cc2c[nH]c3ccccc23)C(=O)O)cc1
systemUnderTest: AIMP2-DX2 (Homo sapiens)
observedValue: 14.92 ± 10.18

molecule: N[C@@H](Cc1c[nH]c2ccccc12)C(=O)Nc1ccc(N2CCOCC2)cc1
systemUnderTest: AIMP2-DX2 (Homo sapiens)
observedValue: 14.92 ± 17.49 (10 μM)

molecule: Cc1ccc(S(=O)(=O)N[C@@H](Cc2c[nH]c3ccccc23)C(=O)NNC(=O)C23CC4CC(CC(C4)C2)C3)cc1
systemUnderTest: AIMP2-DX2 (Homo sapiens)
observedValue: 78.43 ± 6.05 (10 μM)

molecule: CC(C)(C)c1ccc(S(=O)(=O)N[C@@H](Cc2c[nH]c3ccccc23)C(=O)Nc2ccc(N3CCOCC3)cc2)cc1
systemUnderTest: AIMP2-DX2 (Homo sapiens)
observedValue: 68.14 ± 9.57 (10 μM)

molecule: O=C(O)c1ccc(S(=O)(=O)N[C@@H](Cc2c[nH]c3ccccc23)C(=O)Nc2ccc(N3CCOCC3)cc2)cc1
systemUnderTest: AIMP2-DX2 (Homo sapiens)
observedValue: 1.75 ± 8.96 (10 μM)

molecule: COc1ccc(C(=O)NNC(=O)[C@H](Cc2c[nH]c3ccccc23)NS(=O)(=O)c2ccc(C)cc2)cc1 [Compound 182]
systemUnderTest: AIMP2-DX2 (Homo sapiens)
observedValue: 69.62 ± 3.16 (10 μM)
